Attribute: protein stability index
B1: FCHO1 (parent)
chain: FSDPSQSDPETKDFWLNMAALTEA

- Variants of: B1
- assay-notes: protein stability index of a GFP-peptide fusion (GPS, HEK-293T) (PSI 1-6); higher = more stable;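 also: lentivirally expressed fusions sorted by FACS into six bins by GFP to DsRed ratio, PSI derived from sequencing read proportions per bin multiplied by bin number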
- particulars: c terminus: a fixed tail appended
I'd appreciate a reply containing only the number, no unit.

[
  {
    "input-sequence": "FSDPSQSDPETKDFWLRMAALTEA [N17R]",
    "result": 3.06
  },
  {
    "input-sequence": "FSDPSQSDPETKDCWLNMAALTEA [F14C]",
    "result": 4.11
  },
  {
    "input-sequence": "FSDPSQSDPETFDFWLNMAALTEA [K12F]",
    "result": 2.6
  },
  {
    "input-sequence": "DSDPSQSDPETKDFWLNMAALTEA [F1D]",
    "result": 5.36
  },
  {
    "input-sequence": "FSDPSQSDPETKDFWCNMAALTEA [L16C]",
    "result": 2.1
  }
]

Prompt: Check the records and state protein stability index for FSDPSQPDPETKDFWLNMAALTEA [S7P]
Response: 3.92

Prompt: Identify the reported protein stability index for the following entry. FSDPSQSDPETKDFWLNMAALTEM [A24M]
Response: 2.62

Prompt: Tell me measured protein stability index for FSDPSQSDPETKDFALNMAALTEA [W15A] please.
Response: 4.88

Prompt: For the variant FSDPSQSFPETKDFWLNMAALTEA [D8F] , report protein stability index.
Response: 2.37

Prompt: Item FTDPSQSDPETKDFWLNMAALTEA [S2T] : provide protein stability index
Response: 2.11
